assayed_target: recombinant human adrenergic beta 1 receptors (Homo sapiens)
Construct: purchased Euroscreen
test_details: Adrenergic β1 selectivity binding assay ([125I]-Iodocyanopindolol)
protocol_conditions: inhibition of [125I]-Iodocyanopindolol binding, human β1 membranes; read-out: β1 bind p IC50 (converted)
Structures can show the parent of a compound that is named as a salt.

# compound, IC50
records = [
    ("Cc1c(-c2cccc(CCOCCC(=O)N(CCNCCc3ccc(O)c4c3OCC(=O)N4)C3CCCCC3)c2)cnn1C [Example 37, Trifluoroacetic Acid Salt]", "> 10 µM"),
    ("Cn1ccnc1-c1cccc(CCOCCC(=O)N(CCNCCc2ccc(O)c3c2OCC(=O)N3)C2CCCCC2)c1", "> 10 µM"),
    ("Cn1cc(-c2cc(CCOCCC(=O)N(CCNCCc3ccc(O)c4c3OCC(=O)N4)C3CCCCC3)ccc2F)cn1 [Example 13, Trifluoroacetic Acid Salt]", "6.31 µM"),
    ("CC(C)[C@@H](C)N(CCNCCc1ccc(O)c2c1OCC(=O)N2)C(=O)CCOCCc1cccc(-c2cnn(C(C)C)c2)c1 [Example 20, Trifluoroacetic Acid Salt]", "> 10 µM"),
    ("Cn1nnnc1-c1cccc(CCOCCC(=O)N(CCNCCc2ccc(O)c3c2OCC(=O)N3)C2CCCCC2)c1 [Example 08, Trifluoroacetic Acid Salt]", "> 10 µM"),
    ("CC(C)n1cc(-c2cccc(CCOCCC(=O)N(CCNCCc3ccc(O)c4c3OCC(=O)N4)C3CCCC3)c2)cn1 [Example 22, Trifluoroacetic Acid Salt]", "5.01 µM"),
]

---

assayed_target: recombinant human α1D receptor (Homo sapiens, UniProt P25100)
Construct: expressed in transfected cells; host or cells: HEK293
Sequence (P25100 whole entry): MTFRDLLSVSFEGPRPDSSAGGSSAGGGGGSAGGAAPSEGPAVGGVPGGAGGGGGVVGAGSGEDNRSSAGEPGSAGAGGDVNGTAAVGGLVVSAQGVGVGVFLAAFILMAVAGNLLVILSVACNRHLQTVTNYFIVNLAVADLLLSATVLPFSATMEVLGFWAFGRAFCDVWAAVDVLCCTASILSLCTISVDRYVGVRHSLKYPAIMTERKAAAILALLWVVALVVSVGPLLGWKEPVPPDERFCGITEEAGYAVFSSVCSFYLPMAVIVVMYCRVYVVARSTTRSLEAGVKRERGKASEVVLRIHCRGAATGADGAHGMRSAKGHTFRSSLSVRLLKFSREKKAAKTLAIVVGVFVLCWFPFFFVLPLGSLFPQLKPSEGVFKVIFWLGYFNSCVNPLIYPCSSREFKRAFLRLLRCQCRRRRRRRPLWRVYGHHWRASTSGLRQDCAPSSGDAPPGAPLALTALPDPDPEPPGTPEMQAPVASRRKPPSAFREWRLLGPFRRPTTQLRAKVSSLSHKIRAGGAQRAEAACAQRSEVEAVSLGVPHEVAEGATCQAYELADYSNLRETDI
test_details: Adrenergic α1D selectivity binding assay ([3H]-prazosin)
protocol_conditions: inhibition of [3H]-prazosin binding, HEK293 membranes, read-out: α1 bind pIC50 (converted)
Structures can show the parent of a compound that is named as a salt.

# compound, unit_name, reported_relation, IC50
records = [
    ("CCn1cc(-c2cccc(CCOCCC(=O)N(CCNCCc3ccc(O)c4c3OCC(=O)N4)C3CCCC3)c2)cn1 [Example 24, Trifluoroacetic Acid Salt]", "µM", "=", 1.26),
    ("Cn1cc(-c2cc(CCOCCC(=O)N(CCNCCc3ccc(O)c4c3OCC(=O)N4)C3CCCCC3)ccc2F)cn1 [Example 13, Trifluoroacetic Acid Salt]", "µM", "=", 0.631),
    ("CCn1cc(-c2cccc(CCOCCC(=O)N(CCNCCc3ccc(O)c4c3OCC(=O)N4)[C@H](C)C(C)(C)C)c2)cn1 [Example 25, Trifluoroacetic Acid Salt]", "µM", "=", 0.316),
    ("Cn1cc(-c2cccc(CCOCCC(=O)N(CCNCCc3ccc(O)c4c3OCC(=O)N4)C3CCCCCC3)c2)nn1 [Example 06, Trifluoroacetic Acid Salt]", "µM", "=", 1.58),
    ("O=C1COc2c(CCNCCN(C(=O)CCOCCc3cccc(-c4nn[nH]n4)c3)C3CCCCC3)ccc(O)c2N1 [Example 15, Trifluoroacetic Acid Salt]", "µM", ">", 10),
]

---

Entries and their IC50 values follow.
assayed_target: recombinant human adrenergic beta 1 receptors (Homo sapiens, UniProt P08588)
Construct: purchased Euroscreen
Sequence (P08588 whole entry): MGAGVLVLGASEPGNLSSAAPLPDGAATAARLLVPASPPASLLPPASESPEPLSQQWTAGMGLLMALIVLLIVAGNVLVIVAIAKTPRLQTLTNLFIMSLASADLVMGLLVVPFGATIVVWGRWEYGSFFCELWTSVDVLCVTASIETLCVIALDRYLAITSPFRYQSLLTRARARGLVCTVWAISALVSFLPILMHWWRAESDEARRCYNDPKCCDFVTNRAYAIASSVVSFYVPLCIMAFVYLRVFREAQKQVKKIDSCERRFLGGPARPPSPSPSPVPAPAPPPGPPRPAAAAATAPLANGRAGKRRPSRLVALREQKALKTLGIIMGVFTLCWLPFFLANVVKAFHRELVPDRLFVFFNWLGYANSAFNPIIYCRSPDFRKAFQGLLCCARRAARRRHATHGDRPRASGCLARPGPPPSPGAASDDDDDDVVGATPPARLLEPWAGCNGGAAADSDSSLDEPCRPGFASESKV
test_details: Adrenergic β1 selectivity binding assay ([125I]-Iodocyanopindolol)
protocol_conditions: inhibition of [125I]-Iodocyanopindolol binding, human β1 membranes; read-out: β1 bind p IC50 (converted)
Counter-ions that a name gives are not always drawn.
parameter_measured: IC50 (µM)

# compound, reported_relation, recorded_result
data = [
    ("CCn1cc(-c2cccc(CCOCCC(=O)N(CCNCCc3ccc(O)c4c3OCC(=O)N4)C3CCCC3)c2)cn1 [Example 24, Trifluoroacetic Acid Salt]", "=", 5.01),
    ("CCn1cc(-c2cccc(CCOCCC(=O)N(CCNCCc3ccc(O)c4c3OCC(=O)N4)[C@H](C)C(C)(C)C)c2)cn1 [Example 25, Trifluoroacetic Acid Salt]", ">", 10),
    ("CCCC[C@@H](C)N(CCNCCc1ccc(O)c2c1OCC(=O)N2)C(=O)CCOCCc1cccc(-c2cnn(C)c2)c1 [Example 30, Trifluoroacetic Acid Salt]", "=", 3.98),
]
